Recorded EC50, one value per entry.
experimental-target: Heat shock factor protein 1 (Mus musculus, UniProt P38532)
Sequence (P38532 whole entry): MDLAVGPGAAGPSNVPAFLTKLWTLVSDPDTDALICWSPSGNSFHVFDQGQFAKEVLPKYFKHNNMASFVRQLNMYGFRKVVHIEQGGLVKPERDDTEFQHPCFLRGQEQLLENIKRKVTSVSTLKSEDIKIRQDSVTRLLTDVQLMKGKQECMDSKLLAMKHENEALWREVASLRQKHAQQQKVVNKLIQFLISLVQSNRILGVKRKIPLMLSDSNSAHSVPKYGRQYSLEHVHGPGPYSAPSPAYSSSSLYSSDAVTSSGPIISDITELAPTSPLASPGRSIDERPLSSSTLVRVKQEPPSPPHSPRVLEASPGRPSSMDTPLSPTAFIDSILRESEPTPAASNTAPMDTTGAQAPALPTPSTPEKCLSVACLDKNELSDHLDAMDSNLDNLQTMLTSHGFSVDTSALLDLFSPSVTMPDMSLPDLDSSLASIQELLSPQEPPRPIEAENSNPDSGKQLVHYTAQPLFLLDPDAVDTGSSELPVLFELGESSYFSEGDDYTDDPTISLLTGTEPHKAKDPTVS
protocol-summary: decrease of HSF1-responsive luciferase luminescence – cell-based, NIH3T3, dose retest, confirmation (AID 2382);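 note: NIH3T3 fibroblasts with HSF1-driven luciferase reporter stressed by proteasome inhibitor MG132; luminescence from HSF1-driven luciferase expression after 8 hours of MG132 stress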
Type: functional
Calls of active or inactive are those of the source. Cut-off read from the data, not from the text of the source: actives have a measured EC50 and inactives only a lower limit.

Some compounds with known EC50 results, for comparison:
compound	experimental-target	EC50
COc1ccc(/C=C(\C#N)C(=O)Nc2cc(C)c(Cl)cc2OC)cc1O	Heat shock factor protein 1 (Mus musculus, UniProt P38532)	> 195 µM (not active)
Cc1noc(C)c1COc1ccc(C(=O)OCC(=O)Nc2c(C)n(C)n(-c3ccccc3)c2=O)cc1	Heat shock factor protein 1 (Mus musculus, UniProt P38532)	> 195 µM (not active)
CSCC[C@H](NC(=O)N1CCn2c1nc1ccccc12)C(=O)NC1CC1	Heat shock factor protein 1 (Mus musculus, UniProt P38532)	> 195 µM (not active)
O=C(CN1C(=O)C2C3C=CC(C3)C2C1=O)OCC(=O)c1ccc(Br)cc1 (centres undefined)	Heat shock factor protein 1 (Mus musculus, UniProt P38532)	> 195 µM (not active)
O=C(O)c1cccc(NC(=S)NC(=O)c2ccc3ccccc3c2)c1	Heat shock factor protein 1 (Mus musculus, UniProt P38532)	20.6 µM (active)

Request the reported EC50 associated with CCOc1ccc(NC(=O)C2CCCN(c3nn4c(=O)cc(C)nc4s3)C2)cc1 (centres undefined)
> 195 µM (not active)

Another compound to look at: O=S(=O)(NCc1ccccn1)c1ccc(F)cc1
> 195 µM (not active)

Another compound to look at: Cc1nc2cc(-c3ccccc3)nn2c(C)c1CCC(=O)NC(C)c1ccc2c(c1)OCCO2 (centres undefined)
> 195 µM (not active)

Another compound to look at: O=[N+]([O-])c1ccc(N=Nc2ncc[nH]2)cc1
8.49 µM (active)

Data credit: ChEMBL document CHEMBL1201862
